- Test system: HPAF-II cells
- assay-name: HPAF-II cell proliferation assay
- Format: cell-based
- particulars: Homo sapiens; Table 3; mutant KRAS pancreatic cancer cell line, anti-proliferative; read-out: HPAF-II
- Method: HPAF-II cells (catalog #CRL-1997) are obtained from the American Type Culture Collect (ATCC, Manassas, VA). […] Plates are read on a Synergy2 or equivalent reader (Biotek, Winooski, VT) using an excitation of 540 nm and an emission of 600 nm. Data is analyzed using Prism software (Graphpad, San Diego, CA) to calculate IC50 values.
pIC50: −log10 of the molar value.
molecules and their reported pIC50

Cc1ccc(NC(=O)c2cc(C(F)(F)F)cnn2)cc1-c1cc(N2CCOCC2)nc(OCCO)n1 > 7.00

pIC50 lookup needed for `Cc1ccc(NC(=O)c2cc(C(F)(F)F)cnn2)cc1-c1cc(OCCO)nc(N2CCOCC2)c1` , thanks.
> 7.00

pIC50 lookup needed for `Cc1ccc(NC(=O)c2cc(C3CCC3)cnn2)cc1-c1cc(N[C@H](C)CO)nc(N2CCOCC2)c1` , thanks.
6.00 to 6.30

----------
- Tested on: HPAF-II cells
- assay-name: HPAF-II cell proliferation assay
- Assay type: cell-based
- particulars: Homo sapiens; Table 3; mutant KRAS pancreatic cancer cell line, anti-proliferative; read-out: HPAF-II
measured-quantity: IC50

compound	IC50
Cc1ccc(NC(=O)c2cc(C(C)(C)F)cnn2)cc1-c1cc(OCCO)nc(N2CCOCC2)c1 [Example 34]	< 100 nM

IC50 lookup needed for Cc1ccc(NC(=O)c2cc(C(F)(F)F)cnn2)cc1-c1cncc(N2CCOCC2)c1 [Example 27] , thanks.
100 to 500 nM

IC50 lookup needed for Cc1ccc(NC(=O)c2cc(C(F)(F)F)cnn2)cc1-c1nc(N[C@H](C)CO)cc(N2CCOCC2)n1 [Example 49] , thanks.
100 to 500 nM

IC50 lookup needed for Cc1ccc(NC(=O)c2cc(C(F)(F)F)cnn2)cc1-c1ccnc(N2CCOCC2)n1 [Example 29] , thanks.
100 to 500 nM

IC50 lookup needed for Cc1ccc(NC(=O)c2cc(C(C)C)cnn2)cc1-c1cc(N[C@H](C)CO)nc(N2CCOCC2)c1 [Example 14] , thanks.
100 to 500 nM

IC50 lookup needed for Cc1ccc(NC(=O)c2cc(C3CC3)cnn2)cc1-c1cc(OCCO)nc(N2CCOCC2)c1 [Example 37] , thanks.
< 100 nM

IC50 lookup needed for Cc1ccc(NC(=O)c2cc(C(F)(F)F)cnn2)cc1-c1ccnc(N2CC3CCC(C2)O3)c1 [Example 83] , thanks.
< 100 nM

IC50 lookup needed for Cc1ccc(NC(=O)c2cc(C(F)(F)F)cnn2)cc1-c1cc(N[C@H](C)CO)nc(N2CCOCC2)c1 [Example 19] , thanks.
< 100 nM

----------
- target-under-test: B-Raf kinase (SEQ ID NO: 1) (Homo sapiens, UniProt P15056)
- Construct: GST (N); purchased Sigma
- Sequence (P15056 416-766): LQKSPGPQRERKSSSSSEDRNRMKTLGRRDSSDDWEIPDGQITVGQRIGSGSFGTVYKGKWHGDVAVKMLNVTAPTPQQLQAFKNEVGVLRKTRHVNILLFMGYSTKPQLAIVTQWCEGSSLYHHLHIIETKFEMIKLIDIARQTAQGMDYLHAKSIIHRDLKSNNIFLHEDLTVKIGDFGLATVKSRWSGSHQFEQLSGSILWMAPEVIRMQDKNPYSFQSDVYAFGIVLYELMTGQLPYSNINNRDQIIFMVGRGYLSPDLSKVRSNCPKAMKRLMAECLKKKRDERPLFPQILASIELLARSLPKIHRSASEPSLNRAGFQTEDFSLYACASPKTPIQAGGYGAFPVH
- assay-name: Biochemical assay for B-Raf (coupled pyruvate kinase/lactate dehydrogenase)
- particulars: 1 mM ATP; read-out: BRAF (inhibition of biochemical activity, IC50)
measured-quantity: IC50

Solved cases below.
compound	target-under-test	IC50
Cc1ccc(NC(=O)c2cc(C(F)(F)F)cnn2)cc1-c1ccnc(N2CCOCC2)c1 [Example 1]	B-Raf kinase (SEQ ID NO: 1) (Homo sapiens, UniProt P15056)	100 to 500 nM
Cc1ccc(NC(=O)c2cc(C(F)(F)F)cnn2)cc1-c1cc(C2CC2)nc(N2CCOCC2)c1 [Example 3]	B-Raf kinase (SEQ ID NO: 1) (Homo sapiens, UniProt P15056)	100 to 500 nM
Cc1ccc(NC(=O)c2cc(Cl)cnn2)cc1-c1cccc(N2CCOCC2)c1 [Example 75]	B-Raf kinase (SEQ ID NO: 1) (Homo sapiens, UniProt P15056)	1000 to 10000 nM
Cc1ccc(NC(=O)c2cc(C(N)=O)cnn2)cc1-c1cc(N[C@H](C)CO)nc(N2CCOCC2)c1 [Example 80]	B-Raf kinase (SEQ ID NO: 1) (Homo sapiens, UniProt P15056)	1000 to 10000 nM

IC50 lookup needed for Cc1ccc(NC(=O)c2cncc(C(C)C)n2)cc1-c1cc(N[C@H](C)CO)nc(N2CCOCC2)c1 [Example 57] , thanks.
100 to 500 nM

IC50 lookup needed for Cc1ccc(NC(=O)c2cc(C(C)C)cnn2)cc1-c1ccnc(N2CCOCC2)n1 [Example 73] , thanks.
1000 to 10000 nM

IC50 lookup needed for Cc1ccc(NC(=O)c2cc(C(F)(F)F)cnn2)cc1-c1nccc(N2CCOCC2)n1 [Example 10] , thanks.
1000 to 10000 nM

IC50 lookup needed for Cc1ccc(NC(=O)c2cc(C(C)C)cnn2)cc1-c1cc(N2CCOCC2)ncn1 [Example 72] , thanks.
100 to 500 nM

----------
- Test system: MiaPaca-2 cells
- assay-name: MiaPaca-2 cell proliferation assay
- Assay type: cell-based
- particulars: Homo sapiens, MIA PaCa-2; 67-72 h incubation, resazurin; read-out: MiaPaca-2 (inhibition of cell proliferation, IC50)
pIC50: −log10 of the molar value.
measured-quantity: pIC50

compound	pIC50
Cc1ccc(NC(=O)c2cc(C(F)(F)F)cnn2)cc1-c1cc(N[C@H](C)CO)nc(N2CC3CC(C2)O3)c1 [Example 7]	> 7.00
Cc1ccc(NC(=O)c2cc(C(C)(C)F)cnn2)cc1-c1cc(OCCO)nc(N2CCOCC2)c1 [Example 34]	> 7.00
Cc1ccc(NC(=O)c2cncc(C(C)C)c2)cc1-c1cc(N[C@H](C)CO)nc(N2CCOCC2)c1 [Example 13]	6.00 to 6.30

Kindly consider the entry below.
Short answer please: pIC50, MiaPaca-2 cells, entry Cc1ccc(NC(=O)c2cnc(Cl)nc2)cc1-c1cc(N[C@H](C)CO)nc(N2CCOCC2)c1 [Example 38]
5.00 to 6.00

----------
- Test system: MiaPaca-2 cells
- assay-name: MiaPaca-2 cell proliferation assay
- Format: cell-based
- particulars: Homo sapiens, MIA PaCa-2; 67-72 h incubation, resazurin; read-out: MiaPaca-2 (inhibition of cell proliferation, IC50)
measured-quantity: IC50

Solved cases below.
molecule	measured-result
CNc1cc(-c2cc(NC(=O)c3cc(C(F)(F)F)cnn3)ccc2C)nc(N2C[C@H]3C[C@@H]2CO3)n1	< 100 nM
Cc1ccc(NC(=O)c2cc(C3CC3)cnn2)cc1-c1cc(N2CCOCC2)ncn1	1000 to 10000 nM
Cc1ccc(NC(=O)c2cc(C(C)C)cnn2)cc1-c1cccc(N2CCOCC2)c1	1000 to 10000 nM
Cc1ccc(NC(=O)c2cc(C3CC3)cnn2)cc1-c1cc(N[C@H](C)CO)nc(N2CCOCC2)n1	100 to 500 nM
Cc1ccc(NC(=O)c2cc(C(F)(F)F)cnn2)cc1-c1ccnc(N2CCOC(C(F)(F)F)C2)c1 (centres unmarked)	100 to 500 nM

IC50 lookup needed for `Cc1ccc(NC(=O)c2cc(C#N)cnn2)cc1-c1cc(N[C@H](C)CO)nc(N2CCOCC2)c1` , thanks.
< 100 nM

IC50 lookup needed for `CNc1cc(-c2cc(NC(=O)c3cc(C(F)(F)F)cnn3)ccc2C)cc(N2C[C@H]3C[C@@H]2CO3)n1` , thanks.
< 100 nM

IC50 lookup needed for `Cc1ccc(NC(=O)c2cc(C(F)(F)F)cnn2)cc1-c1cc(C2CC2)nc(N2CCOCC2)c1` , thanks.
< 100 nM

----------
- Test system: MiaPaca-2 cells
- assay-name: MiaPaca-2 cell proliferation assay
- Type: cell-based
- particulars: Homo sapiens, MIA PaCa-2; 67-72 h incubation, resazurin; read-out: MiaPaca-2 (inhibition of cell proliferation, IC50)
pIC50: −log10 of the molar value.
compounds and their reported pIC50

Solved cases below.
Cc1ccc(NC(=O)c2cc(Cl)cnn2)cc1-c1cncc(N2CCOCC2)c1 5.00 to 6.00
Cc1ccc(NC(=O)c2cc(C(C)C)cnn2)cc1-c1cncc(N2CCOCC2)n1 5.00 to 6.00
Cc1ccc(NC(=O)c2ccc(C(F)(F)F)nn2)cc1-c1cc(N[C@H](C)CO)nc(N2CCOCC2)c1 6.30 to 7.00

pIC50 lookup needed for `Cc1ccc(NC(=O)c2cc(C3CCC3)cnn2)cc1-c1cc(OCCO)nc(N2CCOCC2)c1` , thanks.
> 7.00

pIC50 lookup needed for `Cc1ccc(NC(=O)c2cc(C(F)(F)F)cnn2)cc1-c1ccnc(N2CCOCC2)n1` , thanks.
> 7.00

pIC50 lookup needed for `Cc1ccc(NC(=O)c2cc(C3CC3)cnn2)cc1-c1ccnc(N2CCOCC2)n1` , thanks.
6.30 to 7.00

pIC50 lookup needed for `Cc1ccc(NC(=O)c2cc(C3CC3)cnn2)cc1-c1nccc(N2CCOCC2)n1` , thanks.
5.00 to 6.00

pIC50 lookup needed for `Cc1ccc(NC(=O)c2cc(C(C)(C)F)cnn2)cc1-c1cc(N[C@H](C)CO)nc(N2CCOCC2)c1` , thanks.
> 7.00
